molecular target: CYP3A4 (Homo sapiens, UniProt P08684); test: in vitro; conditions: human liver microsomes, probe midazolam
Sequence (P08684 whole entry): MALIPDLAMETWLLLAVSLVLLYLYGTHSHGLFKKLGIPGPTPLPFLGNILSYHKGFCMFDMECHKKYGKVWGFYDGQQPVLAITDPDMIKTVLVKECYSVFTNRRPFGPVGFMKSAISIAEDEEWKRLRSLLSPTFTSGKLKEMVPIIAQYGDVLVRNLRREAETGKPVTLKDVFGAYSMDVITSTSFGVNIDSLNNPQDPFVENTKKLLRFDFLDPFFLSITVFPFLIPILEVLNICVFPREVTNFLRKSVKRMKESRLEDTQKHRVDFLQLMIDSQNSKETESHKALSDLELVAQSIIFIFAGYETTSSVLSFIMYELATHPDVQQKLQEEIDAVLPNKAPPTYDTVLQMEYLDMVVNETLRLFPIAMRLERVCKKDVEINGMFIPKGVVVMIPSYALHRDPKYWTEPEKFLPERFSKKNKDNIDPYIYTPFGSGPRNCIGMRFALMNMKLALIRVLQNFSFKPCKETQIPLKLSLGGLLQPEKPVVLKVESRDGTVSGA
valueType: inhibition at 10 µM (%)
Report the value in % with no unit label.

Which inhibition at 10 µM value is on record for `Cc1cc2c(-c3nc(N=S(C)(C)=O)cc(N4CCOC[C@H]4C)n3)ccnc2[nH]1` ?
56

* * *

target: Serine/threonine-protein kinase mTOR (Homo sapiens, UniProt P42345)
valueType: pIC50
Expect pIC50 as a plain number equal to -log10 of the molar concentration.

// pIC50 lookup, key: `C[C@@H]1COCCN1c1cc(N=[S@@](C)(=O)C2CC2)nc(-c2ccnc3[nH]ccc23)n1`
6.78

And what about the compound `C[C@@H]1COCCN1c1cc(N=[S@](C)(=O)C2CC2)nc(-c2ccnc3[nH]ccc23)n1` ?
6.49

Next compound: `C[C@@H]1COCCN1c1cc(N=[S@@](C)(=O)C2CC2)nc(-c2ccnc(N)c2)n1`
6.01

* * *

assay: in vitro; settings: rat, plasma
Description: Protein binding in rat plasma assessed as free fraction at 5 uM incubated for 5 hrs by equilibrium dialysis method
valueType: fraction unbound at 5 h, 5 µM
Reply with just the number.

So what does the record say about fraction unbound at 5 h, 5 µM for `C[C@@H]1COCCN1c1cc(N=[S@@](C)(=O)C2CC2)nc(-c2ccnc(N)c2)n1` ?
0.48

* * *

assay: in vivo; details: cynomolgus monkey, iv, 1 mg/kg
Description: Volume of distribution at steady state in cynomolgus monkey at 1 mg/kg, iv
valueType: Vd (L/kg)
Response body: numeric value in L/kg, unit text excluded.

What does the data say about its Vd? Entry: `C[C@@H]1COCCN1c1cc(N=[S@@](C)(=O)C2CC2)nc(-c2ccnc(N)c2)n1`
2

* * *

assay: in vivo; details: beagle, dog, iv, 1 mg/kg
Description: Volume of distribution at steady state in Beagle dog at 1 mg/kg, iv
valueType: Vd (L/kg)
Answer with a number only, understood to be in L/kg.

Using the record for `C[C@@H]1COCCN1c1cc(N=[S@@](C)(=O)C2CC2)nc(-c2ccnc(N)c2)n1` , report its Vd.
3.6

* * *

assay: physchem; settings: octanol/phosphate buffer, pH 7.4
Description: Lipophilicity, log D of the compound in octanol/phosphate buffer at pH 7.4 by shake flask method
valueType: logD

Give the measured logD of `C[C@@H]1COCCN1c1cc(N=[S@@](C)(=O)C2CC2)nc(-c2ccnc(N)c2)n1` .
1.62

* * *

experiment: in vitro; conditions: rat, hepatocytes
Description: Intrinsic clearance in rat hepatocytes
valueType: CLint scaled

Given the entry `C[C@@H]1COCCN1c1cc(N=[S@@](C)(=O)C2CC2)nc(-c2ccnc(N)c2)n1` , report its measured CLint scaled.
29 mL/min/kg

* * *

test: in vivo; settings: Sprague-Dawley, rat, iv, 1 mg/kg
valueType: Vd (L/kg)
Just the number please, in L/kg, no unit attached.

Quick check: Vd of `C[C@@H]1COCCN1c1cc(N=[S@@](C)(=O)C2CC2)nc(-c2ccnc(N)c2)n1` ?
3.9

* * *

target: Phosphatidylinositol 3-kinase catalytic subunit type 3 (Homo sapiens, UniProt Q8NEB9)
Sequence (Q8NEB9 whole entry): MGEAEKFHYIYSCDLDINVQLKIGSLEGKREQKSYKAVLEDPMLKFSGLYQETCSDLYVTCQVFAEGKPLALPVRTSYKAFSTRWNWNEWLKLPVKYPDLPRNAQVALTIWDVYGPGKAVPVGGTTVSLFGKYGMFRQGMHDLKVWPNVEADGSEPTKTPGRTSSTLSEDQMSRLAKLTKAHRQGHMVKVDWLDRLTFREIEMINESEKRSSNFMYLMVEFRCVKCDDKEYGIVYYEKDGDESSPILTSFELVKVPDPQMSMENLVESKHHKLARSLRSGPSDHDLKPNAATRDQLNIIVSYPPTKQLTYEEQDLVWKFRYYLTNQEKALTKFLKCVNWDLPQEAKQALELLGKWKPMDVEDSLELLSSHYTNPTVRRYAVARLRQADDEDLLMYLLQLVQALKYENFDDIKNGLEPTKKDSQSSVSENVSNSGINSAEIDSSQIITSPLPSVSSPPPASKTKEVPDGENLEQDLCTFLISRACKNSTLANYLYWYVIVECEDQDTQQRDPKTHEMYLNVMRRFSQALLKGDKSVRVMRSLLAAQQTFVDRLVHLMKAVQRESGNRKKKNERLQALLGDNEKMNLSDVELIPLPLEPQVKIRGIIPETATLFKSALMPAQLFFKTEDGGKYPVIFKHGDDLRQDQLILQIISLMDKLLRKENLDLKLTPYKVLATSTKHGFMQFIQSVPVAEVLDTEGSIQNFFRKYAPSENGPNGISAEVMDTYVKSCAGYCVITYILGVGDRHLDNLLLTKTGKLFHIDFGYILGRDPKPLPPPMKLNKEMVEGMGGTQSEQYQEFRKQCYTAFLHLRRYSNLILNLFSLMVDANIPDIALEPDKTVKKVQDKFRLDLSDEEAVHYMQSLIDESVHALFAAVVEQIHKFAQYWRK
valueType: IC50

// IC50 lookup, key: `C[C@@H]1COCCN1c1cc(N=[S@@](C)(=O)C2CC2)nc(-c2ccnc(N)c2)n1`
> 50 µM

* * *

molecular target: Phosphatidylinositol 4,5-bisphosphate 3-kinase catalytic subunit beta isoform (Homo sapiens)
Sequence (P42338 whole entry, canonical isoform): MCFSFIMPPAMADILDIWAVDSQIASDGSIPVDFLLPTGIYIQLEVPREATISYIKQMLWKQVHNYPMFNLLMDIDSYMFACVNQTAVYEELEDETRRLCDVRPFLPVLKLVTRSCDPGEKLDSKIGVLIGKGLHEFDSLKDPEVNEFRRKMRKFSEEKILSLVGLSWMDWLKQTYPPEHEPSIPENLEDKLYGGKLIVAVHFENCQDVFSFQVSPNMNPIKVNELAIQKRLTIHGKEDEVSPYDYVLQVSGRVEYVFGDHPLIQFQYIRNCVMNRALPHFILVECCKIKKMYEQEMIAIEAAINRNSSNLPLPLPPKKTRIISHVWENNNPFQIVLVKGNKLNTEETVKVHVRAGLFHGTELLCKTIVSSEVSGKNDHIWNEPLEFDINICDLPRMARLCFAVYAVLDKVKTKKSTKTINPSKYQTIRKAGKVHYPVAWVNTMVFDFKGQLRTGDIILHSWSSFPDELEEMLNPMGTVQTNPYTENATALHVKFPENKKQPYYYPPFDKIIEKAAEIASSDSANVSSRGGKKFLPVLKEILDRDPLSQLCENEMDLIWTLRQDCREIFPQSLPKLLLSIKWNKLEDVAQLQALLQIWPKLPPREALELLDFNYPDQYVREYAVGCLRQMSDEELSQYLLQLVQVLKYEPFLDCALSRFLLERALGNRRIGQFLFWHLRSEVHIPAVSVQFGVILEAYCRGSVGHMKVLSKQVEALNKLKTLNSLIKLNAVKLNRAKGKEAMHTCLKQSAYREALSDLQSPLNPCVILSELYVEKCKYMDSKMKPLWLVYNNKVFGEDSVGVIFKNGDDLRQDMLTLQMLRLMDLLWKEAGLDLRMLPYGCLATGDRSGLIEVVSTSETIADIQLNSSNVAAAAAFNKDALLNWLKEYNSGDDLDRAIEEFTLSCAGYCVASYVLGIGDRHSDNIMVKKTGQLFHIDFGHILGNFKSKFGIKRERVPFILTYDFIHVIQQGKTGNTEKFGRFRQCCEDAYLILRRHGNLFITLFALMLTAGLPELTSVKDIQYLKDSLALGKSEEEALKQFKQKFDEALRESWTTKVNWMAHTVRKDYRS
valueType: IC50

Given the entry `C[C@@H]1COCCN1c1cc(N=[S@@](C)(=O)C2CC2)nc(-c2ccnc(N)c2)n1` , report its measured IC50.
> 50 µM

* * *

assay: in vitro; conditions: cynomolgus monkey, plasma
Description: Protein binding in cynomolgus monkey plasma assessed as free fraction at 5 uM incubated for 5 hrs by equilibrium dialysis method
valueType: fraction unbound at 5 h, 5 µM

What value of fraction unbound at 5 h, 5 µM has been reported for the following compound? `C[C@@H]1COCCN1c1cc(N=[S@@](C)(=O)C2CC2)nc(-c2ccnc(N)c2)n1`
0.54
